The reported numbers originate from ChEMBL document CHEMBL1153140.

- Experimental protocol: Second elimination Half life in Sprague-Dawley rat at 10 umol/kg, iv
- Type: ADME, organism-based
- Reported conditions: in vivo, read-out: beta t1/2 (converted)
Property name: half-life

CC[C@@H]1CCCCN1C(=O)c1cnc(Nc2ccc(C)nc2)c(Cl)c1 | 54 min

###

- Experimental protocol: Displacement of radioligand from glutamate binding site of kinate receptor in rat brain membrane
- Type: cell membranes
pIC50: −log10 of the molar value.
Property name: pIC50

CC[C@@H]1CCCCN1C(=O)c1cnc(Nc2ccc(C)nc2)c(Cl)c1 | < 5.00

###

- Experimental protocol: Intrinsic clearance in rat liver microsomes
- Format: ADME, Microsome
Overview of reported microsomal CLint across a group of molecules:
Property name: microsomal CLint

CCCCC1CCCCN1C(=O)c1cnc(Nc2ccc(C)nc2)c(Cl)c1 (racemic) | 637 µL/min/mg
Cc1ccc(Nc2ncc(C(=O)N3CCCCC3)cc2Cl)cn1 | 48 µL/min/mg
CCCC1CCCCN1C(=O)c1cnc(Nc2ccc(C)nc2)c(Cl)c1 (racemic) | 885 µL/min/mg
CC[C@@H]1CCCN(C(=O)c2cnc(Nc3ccc(C)nc3)c(Cl)c2)C1 | 643 µL/min/mg
Cc1ccc(Nc2ncc(C(=O)N3CCCC[C@H]3C)cc2Cl)cn1 | 73 µL/min/mg
CC[C@H]1CCCN(C(=O)c2cnc(Nc3ccc(C)nc3)c(Cl)c2)C1 | 687 µL/min/mg
Cc1ccc(Nc2ncc(C(=O)N3CCCC[C@@H]3C)cc2Cl)cn1 | 68 µL/min/mg
CCC1CCCN(C(=O)c2cnc(Nc3ccc(C)nc3)c(Cl)c2)C1 (racemic) | 417 µL/min/mg
CC[C@@H]1CCCCN1C(=O)c1cnc(Nc2ccc(C)nc2)c(Cl)c1 | 87 µL/min/mg
CCC1CCCCN1C(=O)c1cnc(Nc2ccc(C)nc2)c(Cl)c1 (racemic) | 220 µL/min/mg
Cc1ccc(Nc2ncc(C(=O)N3CCCC(C)C3)cc2Cl)cn1 (racemic) | 38 µL/min/mg
CC[C@H]1CCCCN1C(=O)c1cnc(Nc2ccc(C)nc2)c(Cl)c1 | 190 µL/min/mg

###

- Experimental protocol: Ratio of drug level in brain to plasma in Sprague-Dawley rat at 30 umol/kg, po
- Assay type: ADME
Property name: Kp

CC[C@@H]1CCCCN1C(=O)c1cnc(Nc2ccc(C)nc2)c(Cl)c1 | 1.3

###

- Experimental target: Metabotropic glutamate receptor 5 (Homo sapiens)
- Sequence (P41594 whole entry): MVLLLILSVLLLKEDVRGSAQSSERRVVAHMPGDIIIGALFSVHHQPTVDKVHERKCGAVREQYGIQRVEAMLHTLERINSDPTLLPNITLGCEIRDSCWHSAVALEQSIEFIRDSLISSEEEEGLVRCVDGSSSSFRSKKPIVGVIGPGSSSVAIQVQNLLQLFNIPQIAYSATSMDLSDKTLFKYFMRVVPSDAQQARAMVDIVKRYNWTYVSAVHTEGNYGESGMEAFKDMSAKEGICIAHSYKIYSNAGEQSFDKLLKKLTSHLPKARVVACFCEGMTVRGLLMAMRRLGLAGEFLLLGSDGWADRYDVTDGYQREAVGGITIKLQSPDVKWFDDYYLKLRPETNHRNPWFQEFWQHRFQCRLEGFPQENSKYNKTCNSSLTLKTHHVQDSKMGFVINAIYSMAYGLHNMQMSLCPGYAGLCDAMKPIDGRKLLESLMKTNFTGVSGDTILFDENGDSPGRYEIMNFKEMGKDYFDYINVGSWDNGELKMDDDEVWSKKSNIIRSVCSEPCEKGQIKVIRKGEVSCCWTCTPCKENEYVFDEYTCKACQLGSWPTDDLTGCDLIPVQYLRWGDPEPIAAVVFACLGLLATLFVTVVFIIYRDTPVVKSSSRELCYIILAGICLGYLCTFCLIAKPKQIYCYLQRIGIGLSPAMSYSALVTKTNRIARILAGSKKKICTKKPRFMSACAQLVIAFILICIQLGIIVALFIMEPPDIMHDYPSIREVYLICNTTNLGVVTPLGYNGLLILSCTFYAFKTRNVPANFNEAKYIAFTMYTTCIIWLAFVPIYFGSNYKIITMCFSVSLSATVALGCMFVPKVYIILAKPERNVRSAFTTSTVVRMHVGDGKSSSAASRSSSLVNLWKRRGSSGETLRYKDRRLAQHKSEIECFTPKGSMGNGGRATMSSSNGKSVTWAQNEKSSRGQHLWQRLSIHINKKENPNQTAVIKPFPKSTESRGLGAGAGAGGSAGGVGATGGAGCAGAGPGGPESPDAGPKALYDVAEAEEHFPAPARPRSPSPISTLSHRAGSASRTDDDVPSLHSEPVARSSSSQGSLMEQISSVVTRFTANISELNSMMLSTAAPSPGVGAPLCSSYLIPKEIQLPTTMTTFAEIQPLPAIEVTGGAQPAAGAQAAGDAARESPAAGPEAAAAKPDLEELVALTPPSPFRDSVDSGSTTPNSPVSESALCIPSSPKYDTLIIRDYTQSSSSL
- Experimental protocol: Displacement of [3H]ABP688 from human recombinant mGluR5 expressed in CHO cells
pKi: −log10 of the molar value.
Property name: pKi

CC[C@@H]1CCCCN1C(=O)c1cnc(Nc2ccc(C)nc2)c(Cl)c1 | 7.42

###

- Experimental target: Metabotropic glutamate receptor 5 (Homo sapiens)
- Experimental protocol: Antagonist activity at human mGluR5 assessed as inhibition of quisqualate-induced intracellular inositol phosphate accumulation
- Format: functional, cell-based
pIC50: −log10 of the molar value.
Overview of reported pIC50 across a group of compounds:
Property name: pIC50

CCCC1CCCCN1C(=O)c1cnc(Nc2ccc(C)nc2)c(Cl)c1 (racemic) | 7.80
CC[C@H]1CCCCN1C(=O)c1cnc(Nc2ccc(C)nc2)c(Cl)c1 | 6.44
CCCCC1CCCCN1C(=O)c1cnc(Nc2ccc(C)nc2)c(Cl)c1 (racemic) | 8.30
Cc1ccc(Nc2ncc(C(=O)N3CCCC[C@H]3C)cc2Cl)cn1 | 6.37
CCC1CCCCN1C(=O)c1cnc(Nc2ccc(C)nc2)c(Cl)c1 (racemic) | 7.05
CC[C@@H]1CCCCN1C(=O)c1cnc(Nc2ccc(C)nc2)c(Cl)c1 | 7.44
